- assay system: Alpha-1A adrenergic receptor (Homo sapiens)
- Sequence (P35348 whole entry): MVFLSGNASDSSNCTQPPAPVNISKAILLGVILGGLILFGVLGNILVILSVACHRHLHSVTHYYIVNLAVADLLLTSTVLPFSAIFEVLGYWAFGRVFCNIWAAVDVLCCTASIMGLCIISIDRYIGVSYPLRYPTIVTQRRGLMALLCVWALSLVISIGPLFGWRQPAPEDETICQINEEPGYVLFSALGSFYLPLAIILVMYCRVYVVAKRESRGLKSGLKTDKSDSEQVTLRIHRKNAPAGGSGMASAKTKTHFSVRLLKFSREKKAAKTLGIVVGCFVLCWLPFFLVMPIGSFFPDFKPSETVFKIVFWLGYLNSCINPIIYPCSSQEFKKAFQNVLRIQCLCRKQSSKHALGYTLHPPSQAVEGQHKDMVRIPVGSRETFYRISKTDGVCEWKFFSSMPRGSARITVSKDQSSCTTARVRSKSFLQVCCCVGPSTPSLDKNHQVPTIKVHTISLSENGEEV
assay readout: pKi
# pKi = -log10(concentration in molar units)

Known value: Alpha-1A adrenergic receptor (Homo sapiens) pKi of the compound `CNC(=O)C(CCN1CCC(O)(c2ccc(Cl)cc2)CC1)(c1ccccc1)c1ccccc1` equals 8.00

----------
- assay name: Lipophilicity, log D of the compound
- Assay type: physicochemical
- applied conditions: octanol/water
assay readout: logD
Lab note: record the figure alone, no unit after it.

Per the record, `[11CH3]NC(=O)C(CCN1CCC(O)(c2ccc(Cl)cc2)CC1)(c1ccccc1)c1ccccc1` has logD of 2.6

Source of measurements: ChEMBL document CHEMBL1140103
